Target: T1, human interleukin-23 receptor (IL23R) (human, UniProt Q5VWK5 24-355, limits assumed)
T1 construct: also called human IL23R
T1 sequence (looked up): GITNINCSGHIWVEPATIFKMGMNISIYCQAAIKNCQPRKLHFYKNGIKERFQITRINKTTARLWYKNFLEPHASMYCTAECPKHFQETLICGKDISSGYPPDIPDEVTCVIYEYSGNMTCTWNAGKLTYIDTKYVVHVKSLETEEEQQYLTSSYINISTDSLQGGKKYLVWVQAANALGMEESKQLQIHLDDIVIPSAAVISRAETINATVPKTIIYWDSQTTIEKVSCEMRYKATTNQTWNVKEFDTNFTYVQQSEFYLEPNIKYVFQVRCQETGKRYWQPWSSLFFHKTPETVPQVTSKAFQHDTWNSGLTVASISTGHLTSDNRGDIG
Assay: SPR, scFv
MEASURE NAME: kon (M⁻¹ s⁻¹)
Reply numerically in M⁻¹ s⁻¹, unit not repeated.

[[record]]
binder = "Vκ2/VH1A consensus (uncapped), human IL23R specific scFv (scFv, scFv VL-linker-VH, made in E. coli; Vκ framework IV (uncapped, full consensus); also called Vκ2VH1A uncapped) scFv: DIVMTQSPLSLPVTPGEPASISCQASENIYSFLAWYLQKPGQSPQLLIYSASKLAAGVPDRFSGSGSGTDFTLKISRVEAEDVGVYYCQQTNRYSNPDIYNVFGQGTKVEIKRGGGGSGGGGSGGGGSGGGGSQVQLVQSGAEVKKPGSSVKVSCKASGIDFNSNYYMCWVRQAPGQGLEWMGCIYVGSHVNTYYANWAKGRVTITADESTSTAYMELSSLRSEDTAVYYCATSGSSVLYFKFWGQGTLVTVSS"
unit = "M⁻¹ s⁻¹"
test_value = "1.26e+06"


Query block: What does the record list as kon for Vκ3/VH3 consensus λ-capped, human IL23R specific scFv (scFv, scFv VL-linker-VH, made in E. coli; also called Vκ3VH3 capped) scFv: DIVLTQSPATLSLSPGERATLSCQASENIYSFLAWYQQKPGQAPRLLIYSASKLAAGVPARFSGSGSGTDFTLTISSLEPEDFAVYYCQQTNRYSNPDIYNVFGGGTKLTVLGGGGGSGGGGSGGGGSGGGGSEVQLVESGGGLVQPGGSLRLSCAASGIDFNSNYYMCWVRQAPGKGLEWVSCIYVGSHVNTYYANWAKGRFTISRDNSKNTLYLQMNSLRAEDTAVYYCATSGSSVLYFKFWGQGTLVTVSS ?
Result block: 2.89e+06

Query block: Recorded kon for Vκ1/VH2 consensus λ-capped, human IL23R specific scFv (scFv, scFv VL-linker-VH, made in E. coli; also called Vκ1VH2 capped) scFv: DIQMTQSPSSLSASVGDRVTITCQASENIYSFLAWYQQKPGKAPKLLIYSASKLAAGVPSRFSGSGSGTDFTLTISSLQPEDFATYYCQQTNRYSNPDIYNVFGGGTKLTVLGGGGGSGGGGSGGGGSGGGGSQVQLKESGPALVKPTQTLTLTCTFSGIDFNSNYYMCWIRQPPGKALEWLACIYVGSHVNTYYANWAKGRLTISKDTSKNQVVLTMTNMDPVDTATYYCATSGSSVLYFKFWGQGTLVTVSS , please?
Result block: 1.76e+06
